Just for reference, patent US20240109912A1 is where these values come from.

biological target: CDK7/cyclinH/MAT1 trimeric complex (Homo sapiens (Human), UniProt P50613); assay: In vitro CDK7 assay, potency of irreversible covalent inhibitors (kinact/KI); conditions: read-out: CDK7 (20 nM enz.) (kinact/ KI, M^−1*s^−1), 20 nM enz.
Sequence (P50613 whole entry): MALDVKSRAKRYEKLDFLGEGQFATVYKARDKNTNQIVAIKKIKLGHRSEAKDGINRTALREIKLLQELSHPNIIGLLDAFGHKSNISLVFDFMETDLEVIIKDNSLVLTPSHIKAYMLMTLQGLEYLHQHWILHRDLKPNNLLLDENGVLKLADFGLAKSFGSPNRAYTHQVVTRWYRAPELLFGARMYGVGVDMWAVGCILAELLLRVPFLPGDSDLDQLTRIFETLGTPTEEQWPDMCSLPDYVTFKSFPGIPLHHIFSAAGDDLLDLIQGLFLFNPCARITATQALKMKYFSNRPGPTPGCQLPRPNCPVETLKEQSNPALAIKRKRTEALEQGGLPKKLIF
Sequence (P51946 whole entry partner): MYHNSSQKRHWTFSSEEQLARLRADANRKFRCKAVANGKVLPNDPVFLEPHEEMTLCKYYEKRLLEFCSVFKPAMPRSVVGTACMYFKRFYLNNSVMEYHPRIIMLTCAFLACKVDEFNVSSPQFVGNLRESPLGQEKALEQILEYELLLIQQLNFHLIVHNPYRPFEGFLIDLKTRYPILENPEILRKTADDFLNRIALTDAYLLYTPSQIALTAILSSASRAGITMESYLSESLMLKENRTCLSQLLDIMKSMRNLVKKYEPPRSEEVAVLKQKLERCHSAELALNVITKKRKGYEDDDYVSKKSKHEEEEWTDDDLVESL
Sequence (P51948 whole entry partner): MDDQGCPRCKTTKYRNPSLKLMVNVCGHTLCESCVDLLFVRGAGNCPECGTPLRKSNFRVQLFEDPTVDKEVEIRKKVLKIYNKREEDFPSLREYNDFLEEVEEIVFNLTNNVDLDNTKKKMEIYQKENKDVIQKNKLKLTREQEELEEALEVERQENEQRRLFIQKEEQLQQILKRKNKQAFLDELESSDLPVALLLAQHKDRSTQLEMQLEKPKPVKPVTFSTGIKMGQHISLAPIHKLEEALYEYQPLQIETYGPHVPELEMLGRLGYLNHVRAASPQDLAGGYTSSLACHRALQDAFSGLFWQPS
READOUT_TYPE: kinact/KI (M⁻¹ s⁻¹)

I: C=CC(=O)N1CC(N2CCC(c3cc(F)c4c(c3)Nc3ncnc(-c5cnn(C)c5)c3CO4)CC2)C1 [compound 21]
II: CC#CC(=O)N1CC(N2CCC(c3cc(C)c4c(c3)Nc3ncnc(N5CCS(=O)(=O)CC5)c3CO4)CC2)C1 [compound 151]
Enquiry: Lowest kinact/KI? choose I or II Respond using the label that marks the chosen record.
Return: I
(I: 133 M⁻¹ s⁻¹, II: 370 M⁻¹ s⁻¹)

---

pIC50: −log10 of the molar value.
System: RNA polymerase II Serine 5 phosphorylation (CDK7) in A549 cells | Read-out: pIC50

[[record]]
compound = "CC#CC(=O)N1CC[C@@H](N2CCC(c3cc(C)c4c(c3)Nc3ncnc(N5CCS(=O)(=O)CC5)c3CO4)CC2)C1 (single isomer, unassigned)"
test_system = "RNA polymerase II Serine 5 phosphorylation (CDK7) in A549 cells"
result = "~7.30"

[[record]]
compound = "C=CC(=O)N1CCN(C2CN(c3ccc4c(c3)Nc3ncnc(N5CCOCC5)c3CO4)C2)CC1"
test_system = "RNA polymerase II Serine 5 phosphorylation (CDK7) in A549 cells"
result = "< 5.00"

[[record]]
compound = "C=CC(=O)N1CC(N2CC(c3cc(C)c4c(c3)Nc3ncnc(-c5cnn(C)c5)c3[C@H](C)O4)C2)C1 (single isomer, unassigned)"
test_system = "RNA polymerase II Serine 5 phosphorylation (CDK7) in A549 cells"
result = "< 5.00"

[[record]]
compound = "CC#CC(=O)N1CCC([C@H]2CC[C@H](c3cc(C)c4c(c3)Nc3ncnc(N5CCS(=O)(=O)CC5)c3[C@@H](C)O4)CC2)CC1"
test_system = "RNA polymerase II Serine 5 phosphorylation (CDK7) in A549 cells"
result = 6.45

[[record]]
compound = "CC#CC(=O)N1CCN(C2CCN(c3cc(C)c4c(c3)Nc3ncnc(N5CCS(=O)(=O)CC5)c3CO4)CC2)CC1"
test_system = "RNA polymerase II Serine 5 phosphorylation (CDK7) in A549 cells"
result = 6.78

[[record]]
compound = "C=CC(=O)N1CC(N2CC(c3cc(C)c4c(c3)Nc3ncnc(N5CCS(=N)(=O)CC5)c3CO4)C2)C1"
test_system = "RNA polymerase II Serine 5 phosphorylation (CDK7) in A549 cells"
result = 6.09

[[record]]
compound = "CCC#CC(=O)N1CC(N2CCC(c3cc(C)c4c(c3)Nc3ncnc(N5CCS(=O)(=O)CC5)c3[C@@H](C)O4)CC2)C1"
test_system = "RNA polymerase II Serine 5 phosphorylation (CDK7) in A549 cells"
result = "~7.50"


# evaluate next
Enquiry: Kindly state the measured pIC50 obtained for Cc1cc(C2CN([C@@H]3CCN(C(=O)C#CCN(C)C)C3)C2)cc2c1O[C@H](C)c1c(ncnc1N1CCS(=O)(=O)CC1)N2 (single isomer, unassigned) with RNA polymerase II Serine 5 phosphorylation (CDK7) in A549 cells.
Return: > 8.01

---

System: RNA polymerase II Serine 5 phosphorylation in A549 cells overexpressing CDK7 mutant (C312S)
Experiment: Imaging-based cellular RNA PolII Ser5 phosphorylation assay in A549 cells overexpressing CDK7-mutant (C312S)
Assay type: cell-based, human
Conditions: Homo sapiens, A549, A549 cells overexpressing CDK7 mutant (C312S); read-out: CDK7_ A549 mutant hCDK7(pIC50) (converted)
Method: Data were calculated and analyzed in Phaedra. From this an IC50 value can be obtained. In parallel this assay was performed in A549 cells overexpressing CDK7-mutant (C312S) to evaluate the effect of the covalent bond on potency and to screen for potential off-target effects. Mutation of Cysteine to Serine (C312S), a less nucleophilic amino acid, prevents CDK7 inhibitors from covalently binding to CDK7 and from inhibiting CDK7 activity in an irreversible manner. […]
READOUT_TYPE: IC50

[[record]]
compound = "C=CC(=O)N1CC(N2CCC(c3ccc4c(c3)Nc3ncnc(N5CCOCC5)c3[C@@H](C)O4)CC2)C1 (single isomer, unassigned)"
result = "> 10 µM"

[[record]]
compound = "C=CC(=O)N1CCC(N2CCC(c3ccc4c(c3)Nc3ncnc(N5CCOCC5)c3CO4)CC2)CC1"
result = "> 10 µM"


Enquiry: What value of measured IC50 is listed for `C=CC(=O)N1CC(N2CC[C@@H](c3ccc4c(c3)Nc3ncnc(N5CCOCC5)c3CO4)[C@@H](C)C2)C1` ?
Return: > 10 µM

---

molecular target: CDK7/cyclinH/MAT1 trimeric complex (Homo sapiens (Human)); test: In vitro CDK7 assay, potency of irreversible covalent inhibitors (kinact/KI); details: read-out: CDK7 (20 nM enz.) (kinact, s^−1), 20 nM enz.
READOUT_TYPE: kinact (s⁻¹)

Recorded results for 6 compounds are shown here.
[[record]]
compound = "CC#CC(=O)N1CC(N2CCC(c3cc(C)c4c(c3)Nc3ncnc(N5CCS(=O)(=O)CC5)c3CO4)CC2)C1"
readout_type = "kinact"
readout_number = "5.91e-05"

[[record]]
compound = "C=CC(=O)N1CCC(N2CC(c3cc4c(c(C(F)(F)F)c3)OCc3c(ncnc3N3CCOCC3)N4)C2)CC1"
readout_type = "kinact"
readout_number = "4.44e-05"

[[record]]
compound = "C=CC(=O)N1CC(N2CCC(c3cc4c(cc3C#N)OCc3c(ncnc3N3CCOCC3)N4)CC2)C1"
readout_type = "kinact"
readout_number = "5.1e-05"

[[record]]
compound = "C=CC(=O)N1CCC(N2CC(c3cc(C#N)c4c(c3)Nc3ncnc(N5CCOCC5)c3CO4)C2)CC1"
readout_type = "kinact"
readout_number = "3.8e-05"

[[record]]
compound = "C=CC(=O)N1CCC(N2CC(c3cc(F)c4c(c3)Nc3ncnc(N5CCOCC5)c3[C@@H](C)O4)C2)CC1"
readout_type = "kinact"
readout_number = "4.89e-05"

[[record]]
compound = "CC#CC(=O)N1CCC(N2CCN(c3cc(C)c4c(c3)Nc3ncnc(N5CCS(=O)(=O)CC5)c3[C@@H](C)O4)CC2)CC1"
readout_type = "kinact"
readout_number = "5.87e-05"


A: C=CC(=O)N1CC[C@@H](N2CC(c3cc(C)c4c(c3)Nc3ncnc(N5CCS(=O)(=O)CC5)c3[C@H](C)O4)C2)C1 (single isomer, unassigned)
B: C=CC(=O)N1CC(N2CCC(c3ccc4c(c3)Nc3ncnc(N5CCOCC5)c3CO4)CC2)C1
Enquiry: Which of the two items, A and B , has the greater recorded kinact? Field: selected label. Fill in the label of the entry you choose.
Return: B

---

target: CDK7/cyclinH/MAT1 trimeric complex (Homo sapiens (Human), UniProt P50613); experiment: In vitro CDK7 assay, potency of irreversible covalent inhibitors (kinact/KI); conditions: read-out: CDK7 (20 nM enz.) (kinact/ KI, M^−1*s^−1), 20 nM enz.
READOUT_TYPE: kinact/KI (M⁻¹ s⁻¹)

[[record]]
compound = "C=CC(=O)N1CC[C@@H](N2CC(c3cc(F)c4c(c3)Nc3ncnc(N5CCOCC5)c3CO4)C2)C1 (single isomer, unassigned) [compound 55]"
readout_type = "kinact/KI"
readout_number = 65.7


I: C=CC(=O)N1CC(N2CCC(c3cc4c(c(C5CC5)c3)OCc3c(ncnc3N3CCOCC3)N4)CC2)C1 [compound 47]
II: C=CC(=O)N1CC[C@H](N2CC(c3cc(C)c4c(c3)Nc3ncnc(N5CCOCC5)c3CO4)C2)C1 [compound 18]
Enquiry: Which has the higher kinact/KI, I or II ? Give the label under which the chosen entry appears.
Return: I
